Hello, the source for this data is ChEMBL document CHEMBL1137418, in case you need it.

Molecular target: GABA-A receptor; alpha-1/beta-2/gamma-2 (Rattus norvegicus) (UniProt P18508+P62813+P63138)
Test: Activity at rat GABA-Aalpha1 receptor plus beta2gamma2L expressed in Xenopus laevis oocyte assessed as ratio of GABA-mediated current in presence to absence of compound at 1 uM
Format: functional
Class criterion met: Ratio at least 1. Class criterion not met: Ratio below 1.

Qu. Entry C[C@]12C[C@H]3CC[C@H](CCO)CC3C[C@@H]1CCC2=O (single isomer, unassigned; 1d) : is its Ratio no less than 1?
Ans. criterion met

Qu. Entry `CC(=O)[C@H]1CC[C@H]2[C@@H]3CC[C@@H](CCO)C[C@H]3CC[C@]12C` : is its Ratio no less than 1?
Ans. criterion not met

Qu. Entry `C[C@]12CC[C@@H]3C[C@@H](CCO)CC[C@H]3[C@@H]1CCC2=O` : is its Ratio no less than 1?
Ans. criterion met

Qu. Entry C[C@]12C[C@H]3CC[C@@H](CCO)CC3C[C@@H]1CCC2=O (single isomer, unassigned; 1c) : is its Ratio no less than 1?
Ans. criterion not met

Qu. Entry C[C@]12C[C@H]3CC[C@H](CCO)CC3C[C@@H]1CC[C@@H]2C#N (single isomer, unassigned; 2d) : is its Ratio no less than 1?
Ans. criterion met

Qu. Entry `C[C@]12CC[C@@H](O)C[C@@H]1CC[C@@H]1[C@@H]2CC[C@]2(C)[C@@H](C#N)CC[C@@H]12` : is its Ratio no less than 1?
Ans. criterion met

Qu. Entry C[C@]12C[C@H]3CC[C@@H](CCO)CC3C[C@@H]1CC[C@@H]2C#N (single isomer, unassigned; 2c) : is its Ratio no less than 1?
Ans. criterion met

Qu. Entry C[C@]12C[C@H]3CC[C@H](CCO)CC3C[C@@H]1CC[C@@H]2C#N (single isomer, unassigned; 2a) : is its Ratio no less than 1?
Ans. criterion met

Qu. Entry `C[C@]12CC[C@@H](O)C[C@H]1CC[C@@H]1[C@@H]2CC[C@]2(C)C(=O)CC[C@@H]12` : is its Ratio no less than 1?
Ans. criterion not met

Qu. Entry `C[C@]12CC[C@@H]3C[C@H](CCO)CC[C@H]3[C@@H]1CC[C@@H]2C#N` : is its Ratio no less than 1?
Ans. criterion met

Qu. Entry C[C@]12C[C@H]3CC[C@@H](CCO)CC3C[C@@H]1CCC2=O (single isomer, unassigned; 1b) : is its Ratio no less than 1?
Ans. criterion met

Qu. Entry `C[C@]12CC[C@@H]3C[C@@H](CCO)CC[C@H]3[C@@H]1CC[C@@H]2C#N` : is its Ratio no less than 1?
Ans. criterion met

----------
Target: GABA-A receptor; alpha-1/beta-2/gamma-2 (Rattus norvegicus) (UniProt P18508+P62813+P63138)
Assay: Activity at rat GABA-Aalpha1 receptor plus beta-2-gamma-2L expressed in Xenopus laevis oocyte assessed as ratio of GABA-mediated current in presence to absence of compound at 0.1 uM
Format: functional
Rule for this label: YES means Ratio is less than 1; NO means Ratio is at least 1.

Qu. hey, is Ratio for `CC(=O)[C@H]1CC[C@H]2[C@@H]3CC[C@H](CCO)C[C@H]3CC[C@]12C` lower than 1 or not?
Ans. NO

Qu. hey, is Ratio for `C[C@]12CC[C@@H]3C[C@H](CCO)CC[C@H]3[C@@H]1CC[C@@H]2C#N` lower than 1 or not?
Ans. NO

Qu. hey, is Ratio for `C[C@]12CC[C@@H](O)C[C@H]1CC[C@@H]1[C@@H]2CC[C@]2(C)C(=O)CC[C@@H]12` lower than 1 or not?
Ans. YES

Qu. hey, is Ratio for `C[C@]12CC[C@@H]3C[C@@H](CCO)CC[C@H]3[C@@H]1CC[C@@H]2C#N` lower than 1 or not?
Ans. NO

Qu. hey, is Ratio for `CC(=O)[C@H]1CC[C@H]2[C@@H]3CC[C@H]4C[C@H](O)CC[C@]4(C)[C@H]3CC[C@]12C` lower than 1 or not?
Ans. NO

----------
Biological target: GABA-A receptor; alpha-1/beta-2/gamma-2 (Rattus norvegicus) (UniProt P18508+P62813+P63138)
Experiment: Activity at rat GABA-Aalpha1 receptor plus beta-2-gamma-2L expressed in Xenopus laevis oocyte assessed as ratio of current evoked by compound alone in absence of GABA to current evoked by 2 uM GABA at 10 uM
measurement_type: Ratio
Quick one: just the number, no unit, thanks!

Qu. Look up and report measured Ratio for this entry: C[C@]12C[C@H]3CC[C@H](CCO)CC3C[C@@H]1CCC2=O (single isomer, unassigned; 1d)
Ans. -0.05

Qu. Look up and report measured Ratio for this entry: `C[C@]12CC[C@@H]3C[C@H](CCO)CC[C@H]3[C@@H]1CCC2=O`
Ans. 0.03

Qu. Look up and report measured Ratio for this entry: `C[C@]12CC[C@@H](O)C[C@H]1CC[C@@H]1[C@@H]2CC[C@]2(C)C(=O)CC[C@@H]12`
Ans. 0

Qu. Look up and report measured Ratio for this entry: C[C@]12C[C@H]3CC[C@H](CCO)CC3C[C@@H]1CC[C@@H]2C#N (single isomer, unassigned; 2d)
Ans. 0.01

Qu. Look up and report measured Ratio for this entry: `CC(=O)[C@H]1CC[C@H]2[C@@H]3CC[C@@H]4C[C@H](O)CC[C@]4(C)[C@H]3CC[C@]12C`
Ans. 0.06

Qu. Look up and report measured Ratio for this entry: `C[C@]12CC[C@@H](O)C[C@@H]1CC[C@@H]1[C@@H]2CC[C@]2(C)[C@@H](C#N)CC[C@@H]12`
Ans. 0.66

Qu. Look up and report measured Ratio for this entry: C[C@]12C[C@H]3CC[C@@H](CCO)CC3C[C@@H]1CC[C@@H]2C#N (single isomer, unassigned; 2c)
Ans. -0.01

----------
Would you kindly list Ratio for each of these compounds?
Molecular target: GABA-A receptor; alpha-1/beta-2/gamma-2 (Rattus norvegicus) (UniProt P18508+P62813+P63138)
Assay: Activity at rat GABA-Aalpha1 receptor plus beta-2-gamma-2L expressed in Xenopus laevis oocyte assessed as ratio of current evoked by compound alone in absence of GABA to current evoked by 2 uM GABA at 10 uM
Quick one: just the number, no unit, thanks!

Qu. Look up and report measured Ratio for this entry: C[C@]12C[C@H]3CC[C@@H](CCO)CC3C[C@@H]1CCC2=O (single isomer, unassigned; 1c)
Ans. -0.01

Qu. Look up and report measured Ratio for this entry: `C[C@]12CC[C@@H]3C[C@@H](CCO)CC[C@H]3[C@@H]1CCC2=O`
Ans. -0.16

Qu. Look up and report measured Ratio for this entry: `C[C@]12CC[C@@H](O)C[C@@H]1CC[C@@H]1[C@@H]2CC[C@]2(C)C(=O)CC[C@@H]12`
Ans. 0.02

Qu. Look up and report measured Ratio for this entry: C[C@]12C[C@H]3CC[C@H](CCO)CC3C[C@@H]1CC[C@@H]2C#N (single isomer, unassigned; 2a)
Ans. 0

Qu. Look up and report measured Ratio for this entry: C[C@]12C[C@H]3CC[C@@H](CCO)CC3C[C@@H]1CCC2=O (single isomer, unassigned; 1b)
Ans. -0.02

Qu. Look up and report measured Ratio for this entry: C[C@]12C[C@H]3CC[C@@H](CCO)CC3C[C@@H]1CC[C@@H]2C#N (single isomer, unassigned; 2b)
Ans. 0.01

----------
Target: GABA-A receptor; anion channel
Test: Displacement of [35S]TBPS from GABA-A receptor in rat brain membrane
Would you kindly list pIC50 for each of these compounds?
By convention, pIC50 is the negative base-10 log of a molar concentration.

Qu. Give measured pIC50 for C[C@]12C[C@H]3CC[C@@H](CCO)CC3C[C@@H]1CC[C@@H]2C#N (single isomer, unassigned; 2b) (GABA-A receptor; anion channel).
Ans. 6.28

Qu. Give measured pIC50 for `C[C@]12CC[C@@H]3C[C@@H](CCO)CC[C@H]3[C@@H]1CC[C@@H]2C#N` (GABA-A receptor; anion channel).
Ans. 6.89

Qu. Give measured pIC50 for C[C@]12C[C@H]3CC[C@H](CCO)CC3C[C@@H]1CC[C@@H]2C#N (single isomer, unassigned; 2a) (GABA-A receptor; anion channel).
Ans. 5.91

Qu. Give measured pIC50 for `C[C@]12CC[C@@H]3C[C@H](CCO)CC[C@H]3[C@@H]1CCC2=O` (GABA-A receptor; anion channel).
Ans. 5.38

Qu. Give measured pIC50 for C[C@]12C[C@H]3CC[C@@H](CCO)CC3C[C@@H]1CCC2=O (single isomer, unassigned; 1b) (GABA-A receptor; anion channel).
Ans. 5.41

Qu. Give measured pIC50 for CC(=O)[C@H]1CC[C@H]2CC3C[C@@H](CCO)CC[C@@H]3C[C@@]21C (single isomer, unassigned) (GABA-A receptor; anion channel).
Ans. 5.69

Qu. Give measured pIC50 for `CC(=O)[C@H]1CC[C@H]2[C@@H]3CC[C@@H](CCO)C[C@H]3CC[C@]12C` (GABA-A receptor; anion channel).
Ans. 5.93

Qu. Give measured pIC50 for `C[C@]12CC[C@@H](O)C[C@H]1CC[C@@H]1[C@@H]2CC[C@]2(C)[C@@H](C#N)CC[C@@H]12` (GABA-A receptor; anion channel).
Ans. 7.14

Qu. Give measured pIC50 for `C[C@]12CC[C@@H]3C[C@@H](CCO)CC[C@H]3[C@@H]1CCC2=O` (GABA-A receptor; anion channel).
Ans. 5.27

Qu. Give measured pIC50 for C[C@]12C[C@H]3CC[C@@H](CCO)CC3C[C@@H]1CC[C@@H]2C#N (single isomer, unassigned; 2c) (GABA-A receptor; anion channel).
Ans. 5.70

Qu. Give measured pIC50 for C[C@]12C[C@H]3CC[C@H](CCO)CC3C[C@@H]1CC[C@@H]2C#N (single isomer, unassigned; 2d) (GABA-A receptor; anion channel).
Ans. 5.72
